Entry source: PubChem BioAssay AID431

ASSAY DETAILS: viability loss of HPDE-C7K cells – cell-based, fluorescence, HTS, primary screen (AID 431);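 also: 0% = DMSO solvent wells and 100% = doxorubicin-treated wells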
STATED CONDITIONS: HPDE-C7K KRASV12 cells, Alamar Blue viability, 48 h; at 10 µM
The whole screen tested about 63,000 compounds, of which about 1,100 (1.7%) were called active.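 The calls were made as follows: active = compounds whose percent cytotoxicity in the single-dose primary screen, scaled between solvent and toxic-drug controls, exceeds 50; inactive = the rest.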 This excerpt belongs to a sample that is enriched for actives. Measured potencies and affinities stand elsewhere.
Outcomes: 1 (yes) for active, 0 (no) for inactive

- STRUCTURE: "CN1CCN(CCCNC(=O)c2cc3c(-c4ccc(Cl)cc4)nn(C)c3s2)CC1"
  CATEGORY LABEL: "0 (no)"
- STRUCTURE: "O=C(O)c1cccc(Cn2cc(Br)cn2)c1"
  CATEGORY LABEL: "0 (no)"
- STRUCTURE: "COc1cc(S(=O)(=O)N2CCN(c3ccccc3F)CC2)ccc1Cl"
  CATEGORY LABEL: "0 (no)"
- STRUCTURE: "CC(C)Oc1ccc2c(=O)c(-c3ccccc3)coc2c1"
  CATEGORY LABEL: "1 (yes)"
- STRUCTURE: "O=C(Cc1cn2ccsc2n1)NCc1ccccc1"
  CATEGORY LABEL: "0 (no)"
- STRUCTURE: "Cn1nc(-c2ccc(Cl)cc2)c2cc(C(=O)NCCCN3CCOCC3)sc21"
  CATEGORY LABEL: "0 (no)"
- STRUCTURE: "O=C(c1ccc(Cn2cc(Br)cn2)cc1)N1CCN(c2ccccc2)CC1"
  CATEGORY LABEL: "1 (yes)"
- STRUCTURE: "O=C(c1ccc(Cn2cc(Cl)cn2)cc1)N1CCN(c2ccccc2)CC1"
  CATEGORY LABEL: "0 (no)"
- STRUCTURE: "O=C(Nc1ccc(CN2CCCCC2)cc1)c1ccc(Br)o1"
  CATEGORY LABEL: "0 (no)"
- STRUCTURE: "Cc1ccc(C(=O)NCc2ccco2)cc1S(=O)(=O)N1CCCCC1"
  CATEGORY LABEL: "0 (no)"
- STRUCTURE: "CCN(CC)C(=O)Oc1ccc2c(=O)c(-c3ccccc3)coc2c1"
  CATEGORY LABEL: "0 (no)"

====

ASSAY DETAILS: viability loss of HPDE-C7K cells – cell-based, fluorescence, HTS, primary screen (AID 431);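 also: 0% = DMSO solvent wells and 100% = doxorubicin-treated wells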
STATED CONDITIONS: HPDE-C7K KRASV12 cells, Alamar Blue viability, 48 h; at 10 µM; active compounds read high
In all, about 63,000 compounds went through this assay and about 1,100 (1.7%) were called active. The full list was thinned out, with actives kept by preference. Results with a measured potency or affinity are listed apart.

- COMPOUND: "O=C(CC1SCCNC1=O)Nc1cc(Cl)cc(Cl)c1 (stereo unspecified)"
  UNIT NAME: "%"
  cytotoxicity: -5.4
- COMPOUND: "CN1CC2=Cc3ccccc3OC23Oc2ccccc2C=C3C1"
  UNIT NAME: "%"
  cytotoxicity: 60.6
- COMPOUND: "O=C(Cc1ccc(Cl)cc1)Nc1ccc(-c2nnc(-c3ccco3)o2)cc1"
  UNIT NAME: "%"
  cytotoxicity: 4.4
- COMPOUND: "O=C(O)c1ccc2c3c(ncnc13)-c1ccccc1C2=O"
  UNIT NAME: "%"
  cytotoxicity: 75.9
- COMPOUND: "CN(C)CCNc1nc(-c2ccco2)c2c(c1C#N)CC(C)(C)OC2"
  UNIT NAME: "%"
  cytotoxicity: -0.3
- COMPOUND: "CCOC(=O)C1CCN(c2c(NCCN3CCCCC3C)c(=O)c2=O)CC1 (stereo unspecified)"
  UNIT NAME: "%"
  cytotoxicity: 2.6
- COMPOUND: "COc1ccc(CCNc2oc(COc3ccccc3F)nc2C#N)cc1"
  UNIT NAME: "%"
  cytotoxicity: 23.7
- COMPOUND: "COc1ccc2[nH]c(C(=O)O)c(CCC(=O)O)c2c1"
  UNIT NAME: "%"
  cytotoxicity: 1.5
- COMPOUND: "Cc1nnc(SCC(=O)N2CCN(S(=O)(=O)c3ccccc3)CC2)[nH]c1=O"
  UNIT NAME: "%"
  cytotoxicity: 1.8
- COMPOUND: "O=C(O)CCc1cc(I)c(Oc2ccc(O)c(I)c2)c(I)c1"
  UNIT NAME: "%"
  cytotoxicity: 81.2
- COMPOUND: "CS(=O)(=O)c1ccc2nc(NC(=O)CC3CCCC3)sc2c1"
  UNIT NAME: "%"
  cytotoxicity: -9
